- Assay Name: antimalarial activity against Dd2 strain (AID 2302);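 note: 0% = DMSO untreated growth and 100% = chloroquine plus artemisinin killed control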
- Measurement Context: P. falciparum Dd2 in RBCs, LDH growth readout, 72 h; at 2 µM
Calls of active or inactive are those of the source.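 Rule for the calls: active = growth inhibition above 50% at the single 2 µM test dose, taken to imply half-maximal potency below 2 µM; inactive = the rest.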
Could you please pick one outcome from this set? active, inactive

Observe how each entry below is paired with its result.
| Molecule | Label Class |
| --- | --- |
| COc1cc(C)nc2ccc(NC(=O)Nc3ccc4nc(C)cc(OC)c4c3)cc12 | active |
| Cn1nc(-c2cccc(CNC3CCc4ccccc43)c2)c2cnc(NCCCN3CCCC3)nc21 (stereo unspecified) | inactive |
| COCCNCc1ccc(-c2ccccc2CNC2CCN(Cc3ccccc3)CC2)cc1 | inactive |
| Cc1nc(-c2cccc(Nc3nccc(NCC(O)c4ccccc4C(F)(F)F)n3)c2)cs1 (stereo unspecified) | active |
| COc1ccc(NC(=O)Nc2ccc(-c3ccccc3)cc2)cc1Cn1nc(Cl)c(N2CCCNCC2)cc1=O | active |

Query: recorded result category for Cc1cc(N[C@@H](Cc2ccccc2)C(=O)NCc2cccs2)nc(NCCOc2ccccc2)n1 in this test
Reply: inactive

Query: Recorded call for COc1ccc2nc(-c3ccccc3)cc(NCCN(C)C)c2c1 ?
Reply: inactive

Query: # lookup: test call for O=C(c1cc2nc3c(c(C(F)(F)F)n2n1)CCc1ccccc1-3)N1CCN2CCCC2C1 (stereo unspecified)
Reply: inactive

Query: Can you look up the reported call for COCCNCc1ncsc1-c1ccc2c(Nc3cc(O)ccc3C)ccnc2c1 for me?
Reply: inactive

Query: Record lookup: outcome of this test for Cc1cc(N2CCCN(C)CC2)nc(Nc2ccc(Br)cc2)n1 ?
Reply: inactive

Query: What call does the record list for CN(C)CCCNc1c2ccccc2nc2ccccc12 ?
Reply: inactive

Query: Identify the outcome logged in this assay for the molecule shown: C[C@@H](Oc1cc(-n2cnc3ccc(NC(=O)NC(C)(C)C)cc32)sc1C(N)=O)c1ccccc1Cl
Reply: active

====

# inhibition per record follows
- Assay Name: human hepatoma cell viability loss – ATP luminescence, cytotoxicity control for P. falciparum antimalarial project, primary screen (AID 2303);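 note: 0% = DMSO wells and 100% = digitonin-killed cells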
- Measurement Context: HepG2 viability, 24-48 h, at 10 µM, stronger effect = higher value
Number only, in %; omit the unit.

| Molecule | Property Label | Observed Result |
| --- | --- | --- |
| CN1CCC(NCc2ccc(-c3ccc(S(=O)(=O)NCc4ccccc4)cc3)cc2)CC1 | inhibition | 40 |
| O=C(Nc1ccccc1Cl)c1cc2ccccc2cc1O | inhibition | 2 |
| CCN(CC)CCN(Cc1ccc(-c2ccc(C(F)(F)F)cc2)cc1)C(=O)Cn1c(CCc2c(F)cccc2F)nc(=O)c2ccccc21 | inhibition | 36 |

For O=C(NC1CCCCC1)N(Cc1ccc(-c2cccc(CNCc3ccc4c(c3)OCO4)c2)cc1)C1CCN(Cc2ccccc2)CC1 the molecule record lists inhibition as 23

The molecule listed as CC(C)CNC(=O)c1cncc(-c2ccc(CN3CCC(N4CCCC4)CC3)cc2)c1 has a reported inhibition of 25

Summary for this molecule, CCCCCCN1CCN(Cc2cccc(NC(=O)c3cc4ccccc4o3)c2)CC1 : inhibition is 20

====

- Assay Name: inhibition of 3D7 malaria parasite growth – strain 3D7 (AID 2306);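 note: 0% = DMSO wells and 100% = chloroquine plus artemisinin control wells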
- Measurement Context: P. falciparum 3D7 erythrocytic growth, LDH absorbance, 72 h; at 2 µM; stronger effect = higher value
Property Label: growth inhibition (%)
Only the number, expressed in %, is required.

Recorded growth inhibition, per entry:
| Compound | Unit Spec | growth inhibition |
| --- | --- | --- |
| CCOC(=O)NC1=NC(C)(C)N(OCCCOc2cc(Cl)c(Cl)cc2Cl)C(N)=N1 | % | 97 |
| CC(C)c1cc(Oc2c(I)cc(CCCc3ncc[nH]3)cc2I)ccc1O | % | 88 |
| COc1cccc(NC(=O)Nc2ccc(C)c(-c3ccc(C(=O)Nc4ccncc4)cc3)c2)c1 | % | 99 |
| Fc1ccc(COc2ccc(Nc3ncnc4ccc(I)cc34)cc2Cl)cc1 | % | 86 |
| COc1cccc(OC2CCN(C(=O)c3ccc(-c4ccc(N5CCCC5=O)cc4C)cc3)CC2)c1 | % | 85 |
| Clc1ccc2c(NCCCCCCCCNc3ccnc4cc(Cl)ccc34)ccnc2c1 | % | 99 |
| CC(C)(C)OC(=O)N1CCN(c2ccccc2NC(=O)c2cccc(C(F)(F)F)c2Oc2ccc(F)cc2)CC1 | % | 100 |
| CCN(CC)CCCC(C)Nc1cc(C=Cc2ccccc2Cl)nc2cc(Cl)ccc12 (stereo not drawn) | % | 99 |
| O=C(Nc1ccc(C(F)(F)F)cc1)c1ccc(NCCCN2CCCCCC2)c([N+](=O)[O-])c1 | % | 102 |
| Cc1ccccc1C1CCN(C2CCC(NC(=O)/C=C/c3cccc(F)c3F)CC2)CC1 (stereo not drawn) | % | 89 |

Lookup result for COc1ccccc1-n1ccnc1SCC(=O)Nc1cc(C(F)(F)F)ccc1Cl ; measured growth inhibition: 97

Form field growth inhibition, entry CC(C)(C)CC(C)(C)c1ccc(O)c(C(=O)Nc2cccc([N+](=O)[O-])c2)c1 : 95

Query CCC(C)NCCC(c1ccccc1)c1ccccc1O (stereo not drawn) yields growth inhibition of 97

====

- Assay Target: L-lactate dehydrogenase (Plasmodium falciparum (isolate CDC / Honduras))
- Assay Name: PfLDH activity inhibition – cell lysate, 3D7 strain, counter-screen for P. falciparum growth inhibition project (AID 2304);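 note: 0% = vehicle and 100% = reference inhibitor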
- Measurement Context: P. falciparum 3D7 crude extract, LDH APAD/NBT absorbance; at 2 µM; stronger effect = higher value
Property Label: inhibition (%)
Record the value in %, omitting the unit from your answer.

As a guide, the following entries are already answered.
| Compound | Observed Result |
| --- | --- |
| C[C@H](Cc1ccc(OCCCCCCOc2ccc(C[C@@H](C)N[C@H](C)c3ccccc3)cc2)cc1)NC[C@H](O)c1cccc(Cl)c1 | -4 |
| O=C1CCCN1CCCNCc1ccc(-c2cccc(-c3nc4ccc(C(F)(F)F)cc4[nH]3)c2)cc1 | 2 |
| COc1cc2nc(N(C)C)nc(Nc3ccc(OCc4ccccc4)cc3)c2cc1OC | -8 |
| Cn1nc(C(F)(F)F)c(-c2ccc(F)cc2)c1NC(=O)Nc1ccc(F)cc1F | -2 |
| COc1cc(CN2CCC(CO)(Cc3cccc(C(F)(F)F)c3)CC2)c(Cl)cc1O | 6 |

Notebook: Cc1cc(CNC(=O)c2ccc(-c3ccc(-c4nc5ccc(C(F)(F)F)cc5[nH]4)s3)cc2)on1 , inhibition read as -1

// recorded inhibition for Fc1cc(CN2CCCC2)ccc1OCCCN1CCN(c2cccc(Cl)c2Cl)CC1 : -1

Kindly note the recorded inhibition for c1ccn2c(Sc3ncnc4sccc34)ncc2c1 , which is 2

For record N#Cc1cncc(-c2nc3c(N4CCC(Cc5ccccc5)CC4)cccc3n2C2CCNC2)c1 (centres undefined) the listed inhibition is -1

inhibition reported for this compound CCc1ccc(CN2CCC(CNC(=O)c3cc(-c4ccccc4F)cs3)C2)cc1 (centres undefined) : -2

get_value(item= CC1CN(Cc2ccc(-c3ccc(-c4nc5ccccc5[nH]4)cc3)cc2)CC(C)O1 (centres undefined) , readout=inhibition) returns 3

compound CCc1nc(N)nc(N)c1-c1cccc(Cl)c1 , inhibition observed: 2

Noted for COc1ccc2ccccc2c1CNCCCCCCNCc1c(OC)ccc2ccccc12 : its inhibition reads -2

Noted for COc1ccc(C(=O)N2CCC3(CC2)C(=O)N(CC(=O)NCC2CCCCC2)CN3c2ccccc2)cc1 : its inhibition reads 3

====

- Assay Name: antimalarial activity against Dd2 strain (AID 2302);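 note: 0% = DMSO untreated growth and 100% = chloroquine plus artemisinin killed control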
- Measurement Context: P. falciparum Dd2 in RBCs, LDH growth readout, 72 h; at 2 µM; stronger effect = higher value
Property Label: growth inhibition (%)
Provide the reading as a plain figure in %.

Consider the worked cases shown below.
| Compound | Unit Spec | growth inhibition |
| --- | --- | --- |
| CC(C)(C)c1ccc(CNCCOc2ccc(Nc3nnc(-c4ccc(-c5ncc[nH]5)cc4)o3)c3ccccc23)cc1 | % | 88 |
| OC1(c2ccccc2)c2cc(Cl)ccc2OC1c1nc2c(Cl)ccc(Cl)c2o1 (stereo not drawn) | % | 89 |

Just so you know, measured growth inhibition for CCCN(Cc1nnc(-c2ccco2)o1)C(=O)C1CCN(c2ncc(C(F)(F)F)cc2Cl)CC1 came out at 92

====

The following compounds are listed with their measured growth inhibition values.
- Assay Name: inhibition of 3D7 malaria parasite growth – strain 3D7 (AID 2306);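 note: 0% = DMSO wells and 100% = chloroquine plus artemisinin control wells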
- Measurement Context: P. falciparum 3D7 erythrocytic growth, LDH absorbance, 72 h; at 2 µM; stronger effect = higher value
// note: answer is a bare numeric in %

Reference set, count: 5
| Compound | growth inhibition [%] |
| --- | --- |
| CN1CCN(C(C(=O)NCc2cc(Cl)cc(Cl)c2)c2ccc(Nc3cccc(C(F)(F)F)c3)cc2)CC1 (stereo unspecified) | 85 |
| O=C(/C=C/c1ccc2ccccc2c1)NCCCCCN1CCC(c2c[nH]c3ccccc23)CC1 | 90 |
| COc1ccc(CNC2CCN(C)CC2)cc1-c1ccc(S(=O)(=O)NC2CCC2)c(F)c1 | 101 |
| FC(F)(F)c1ccc2nc(-c3cccc(-c4cccc(CNCCc5ccncc5)c4)c3)[nH]c2c1 | 99 |
| C=CCc1ccc(C2CCN(CCCCNC(=O)c3ccc(NC(=O)c4ccc(Cl)cc4)cc3)CC2)cc1 | 101 |

Record COc1cc(F)c2nccc([C@@H](O)CN3CC[C@H](NCc4ccc5c(n4)NC(=O)CS5)[C@H](F)C3)c2c1 , field growth inhibition: 87

Entry CC(C)C[C@H](Nc1ccnc(NCC2CCCCC2)n1)C(=O)NCCc1ccccc1 ; growth inhibition = 88

Per the record, N#Cc1c(N2CCN(c3ccc(F)cc3)CC2)nc(N)c2c(N)nc3c(c12)CC(=O)N3C1CC1 has growth inhibition of 95

The measured growth inhibition associated with O=C(NCCCCN1CCC(c2ccc([N+](=O)[O-])cc2)CC1)c1ccc(NC(=O)c2ccc(Cl)cc2)cc1 reads 100

Memo: CCCOc1cc(OCCC)cc(-c2ccc(C(=O)Nc3ccc4ccc(C)nc4c3)c(=O)[nH]2)c1 , reported growth inhibition: 101

Entry under test: CSc1ccc(CN2CCC(NC(=O)c3ccc(-c4cccc(C(F)(F)F)c4)s3)CC2)cc1 . Its growth inhibition was 90

growth inhibition in this record for Cc1cc(=O)[nH]c2cc(Nc3ccnc(Nc4cccc(C(N)=O)c4)n3)ccc12 : 99
